Target: Protein Tat (Human immunodeficiency virus type 1 group M subtype B (isolate HXB2)) (UniProt P04608)
Sequence (P04608 whole entry, looked up): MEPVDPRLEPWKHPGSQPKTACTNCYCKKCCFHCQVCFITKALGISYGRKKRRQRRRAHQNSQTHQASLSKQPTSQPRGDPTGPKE
Assay: inhibitors of Tat binding to TAR RNA, dose response, counter-screen for Vif-APOBEC3G degradation inhibitor project, biochemical, fluorescence polarization, FAM-labeled TAR RNA (AID 1117361)
endpoint-name: pIC50
Bear in mind: pIC50 is minus log10 of a mol/L concentration; give just that figure.

{"compound": "CNc1c(C(=O)O)ccc2c1C(=O)c1ccccc1C2=O", "assay-value": 4.66}

Consider the additional compound presented here.
[in] // query pIC50 value for entry Cc1ccc(Cn2c(=S)[nH]c3ccc(N4CCOCC4)cc3c2=O)o1
[out] 5.40

###

Some compounds, each annotated with its measured IC50.
Target: Protein Tat (Human immunodeficiency virus type 1 group M subtype B (isolate HXB2)) (UniProt P04608)
Experiment: inhibitors of Tat binding to TAR RNA, dose response, counter-screen for Vif-APOBEC3G degradation inhibitor project, biochemical, fluorescence polarization, FAM-labeled TAR RNA (AID 1117361)

[in] I'd like to know its IC50. The compound in question is CCC(C)C(NC(=O)[C@@H](NC(=O)c1ccccc1F)C(C)C)C(=O)OC (stereo not given in full)
[out] 30.7 µM

[in] Here is the next compound: O=C1c2sc3nc4n(c(=O)c3c2CCC1Br)CCCCC4 (stereo not given)
[out] 4.82 µM

[in] Also O=C(Cc1cc(=O)[nH][nH]1)N/N=C/C=C/c1ccccc1 , if possible.
[out] 43.1 µM

[in] Similarly, O=C(O)c1ccc2c(c1)C1C(Cl)C(Sc3ccccc3[N+](=O)[O-])CC1C(c1cccc([N+](=O)[O-])c1)N2 (stereo not given) ?
[out] 6.3 µM

[in] Also O=C1CC(c2ccco2)CC(O)=C1C=Nc1cc(Cl)cc(Cl)c1 (stereo not given) , if possible.
[out] 9.58 µM

[in] Same question for CC(/C=C1\SC(=S)N(CCCC(=O)Nc2ccc(C(=O)O)c(O)c2)C1=O)=C\c1ccccc1 please.
[out] 26 µM

[in] Follow-up entry: O=C(NCCc1c[nH]c2ccccc12)c1ccc(S(=O)(=O)NCc2ccco2)cc1
[out] 48.3 µM

[in] Lookup Cc1ncc(CO)c(/C=N/NC(=O)c2cc(O)c(O)c(O)c2)c1O
[out] 32.1 µM

[in] What do you have for COC(=O)C1=C(N)OC2=C(C(=O)CCC2)C1c1cccs1 (stereo not given) ?
[out] 52.2 µM

[in] Similarly, COc1cccc(CNC(=O)CCNS(=O)(=O)c2cccs2)c1 ?
[out] 9.05 µM

###

Target: Protein Tat (Human immunodeficiency virus type 1 group M subtype B (isolate HXB2)) (UniProt P04608)
Experiment: inhibitors of Tat binding to TAR RNA, dose response, counter-screen for Vif-APOBEC3G degradation inhibitor project, biochemical, fluorescence polarization, FAM-labeled TAR RNA (AID 1117361)
endpoint-name: pIC50
Remember, pIC50 is on a log scale: it is -log10 of the molar concentration.

Illustrative cases are given below, each with its answer.
{"compound": "CC(C)n1c(=NC(=O)c2ccco2)c(C#N)cc2c(=O)n3ccccc3cc21", "pIC50": 4.02}
{"compound": "O=C(NC1CC1)c1cc(-c2ccco2)nc2ccccc12", "pIC50": 5.03}
{"compound": "COc1ccc(C2=NCC(=O)N(CC(=O)NCc3ccco3)c3sc4c(c32)CCCC4)cc1OC", "pIC50": 4.08}

[in] Any idea what its pIC50 is? The compound is CC(=O)c1ccc2c(c1)C1C=CCC1C(C(=O)O)N2 (stereo not given)
[out] 5.61

[in] Next up: CN(C)S(=O)(=O)c1cccc(NC(=S)N/N=C/c2ccc(O)c(O)c2O)c1
[out] 4.63

[in] Same for O=C(Nc1ccc(F)cc1)C(c1ccccc1)N1CCN(S(=O)(=O)c2ccc3ccccc3c2)CC1 (stereo not given)
[out] 5.91

###

Biological target: Protein Tat (Human immunodeficiency virus type 1 group M subtype B (isolate HXB2))
Assay: inhibitors of Tat binding to TAR RNA, dose response, counter-screen for Vif-APOBEC3G degradation inhibitor project, biochemical, fluorescence polarization, FAM-labeled TAR RNA (AID 1117361)
endpoint-name: pIC50
Recall that pIC50 is obtained by taking minus log10 of the concentration measured in molar.

{"compound-structure": "CCCSC1=N/C(=C\\c2ccc([N+](=O)[O-])o2)C(=O)S1", "pIC50": 5.13}
{"compound-structure": "COc1ccc(NC(=O)N2c3ccc(OC)cc3C(C)=CC2(C)C)cc1", "pIC50": 5.48}
{"compound-structure": "CN(C(=S)Nc1cccnc1)c1ccc(O)cc1", "pIC50": 4.57}
{"compound-structure": "COc1cc(C(=O)NCc2nnc(SCC(=O)Nc3nc4ccc(C)cc4s3)o2)cc(OC)c1OC", "pIC50": 4.45}
{"compound-structure": "O=[n+]1c2c(n([O-])c3cc(F)c(F)cc31)CCCC2", "pIC50": 4.95}

[in] What measured pIC50 goes with CCOc1cccc(CNCCNC(=O)c2nonc2N)c1 ?
[out] 4.07

###

Molecular target: Protein Tat (Human immunodeficiency virus type 1 group M subtype B (isolate HXB2)) (UniProt P04608)
Assay: inhibitors of Tat binding to TAR RNA, dose response, counter-screen for Vif-APOBEC3G degradation inhibitor project, biochemical, fluorescence polarization, FAM-labeled TAR RNA (AID 1117361)
Below, each entry is listed alongside its reported pIC50.
Field pIC50 (float): negative decimal logarithm of the concentration in molar.

[in] Give its pIC50 value. Item: O=C(O)CCc1ccc(-c2cccs2)n1-c1ccc(C(=O)O)cc1
[out] 4.34

[in] Next: O=C(Nc1nc(-c2ccco2)c(-c2ccco2)s1)C1CCC1
[out] 5.58

[in] What do you get for CCN(C(=O)c1coc(=O)c(Br)c1)c1ccc2c(c1)OCO2 ?
[out] 5.93

[in] How about this compound: O=C(NCCO)c1ccc2nc(-c3ccco3)c(-c3ccco3)nc2c1
[out] 5.13

[in] Next compound: O=C1NC(=S)SC1=C1CCCC1
[out] 5.18

[in] Continue with CC(=C/c1ccco1)/C=N/NC(=O)Cc1cccn1C
[out] 4.97

[in] Input O=C(O)Cc1cccc(=O)c(O)c1C(=O)O
[out] 4.26

###

Target: Protein Tat (Human immunodeficiency virus type 1 group M subtype B (isolate HXB2)) (UniProt P04608)
Assay: inhibitors of Tat binding to TAR RNA, dose response, counter-screen for Vif-APOBEC3G degradation inhibitor project, biochemical, fluorescence polarization, FAM-labeled TAR RNA (AID 1117361)
endpoint-name: IC50

{"molecule": "CCN1C(=O)/C(=C\\c2ccc([N+](=O)[O-])s2)C(=O)NC1=S", "assay-value": "4.07 µM"}

[in] Which IC50 reading was recorded for the molecule CNc1ccc(Br)cc(C(=O)/C=C/c2ccc(OC)cc2OC)c1=O ?
[out] 52 µM

[in] Next molecule up: CC1=C(C#N)C(=O)N(C2CCS(=O)(=O)C2)C(=O)/C1=C\c1ccco1 (stereo not given)
[out] 2.88 µM

[in] Now this one: O=C(O)CSc1c2c(nc3cc(C(=O)N4CCOCC4)ccc13)CCCC2
[out] 12.2 µM

[in] Record: O=S(=O)(O)c1cc(O)c2c(O)c(N=Nc3cc(Cl)ccc3O)c(S(=O)(=O)O)cc2c1
[out] 15.9 µM

[in] Try the molecule COc1cc(C2C(C#N)=C(N)N(c3cccnc3)C3=C2C(=O)CCC3)ccc1O (stereo not given)
[out] 43.4 µM

[in] Would you kindly repeat that for CCN(CC(=O)Nc1c(F)cccc1F)C(=O)CSC(=S)N1CCCC1 ?
[out] 75.6 µM

[in] CC1(C)CCCN(C(=O)c2coc(=O)c(Br)c2)C1 ?
[out] 7.77 µM

[in] Please give the result for COc1cccc(=O)c2c(C)n(-c3ccc(C(=O)O)cc3)c(C)c12 too.
[out] 3.06 µM

[in] O=C1NC(=O)N(c2ccc(Cl)cc2)C(=O)/C1=C\c1ccc(Sc2nc3ccccc3[nH]2)o1 , same question.
[out] 3.41 µM

[in] Ok, now CSc1ccc(/C=N/Nc2cccc(C(=O)O)c2)cc1
[out] 5.81 µM

[in] NCCc1c[nH]c2ccccc12 ?
[out] 11.8 µM

[in] Similarly, Cc1ccc(/C=C/C2=Cc3c(sc(NC(=O)CSc4n[nH]c(N)n4)c3C#N)C(C)(C)C2)o1 ?
[out] 3.04 µM

[in] Please give the result for O=C(O)C1Nc2c(O)cc(Cl)c([N+](=O)[O-])c2C2C=CCC12 (stereo not given) too.
[out] 1.64 µM

[in] Continue with Cc1cccc(N(C(=O)Cn2nnc3ccccc32)C(C(=O)NCc2ccco2)c2ccncc2)c1C (stereo not given)
[out] 27.6 µM

[in] Let us now turn to CCOc1cccc(=O)c2c(C)n(CC(=O)c3ccccc3)c(C)c12
[out] 18.6 µM

[in] // next record CC(CNc1ccccc1O)C(=O)O (stereo not given)
[out] 32.7 µM

[in] Now the molecule Cc1cc(C(=O)CSc2nc3ccccc3c(=O)[nH]2)c(C)n1C
[out] 49.2 µM

[in] Try the molecule COC(=O)c1ccccc1-c1c2ccc(=N)cc-2oc2cc(N)ccc12
[out] < 0.19 µM

[in] Entry CCCOc1ccc(N)cc1N please
[out] 59.5 µM

[in] And for Oc1ccc(N=Cc2ccc(-c3cccs3)s2)cc1 ?
[out] 8.64 µM
